Would you kindly list efflux ratio for each of these compounds?
assay: Efflux ratio of permeability across basolateral to apical side in human Caco2 cells; assay type: ADME, cell-based; conditions: Caco-2
API note: the answer field is a bare number with no unit suffix.

Query: I am curious: what efflux ratio value has been reported for CCn1nc(-c2cccc3cccnc23)cc1-c1ccc(N)nn1 ?
Response: 0.7

Query: I am curious: what efflux ratio value has been reported for Cc1nc(-c2cccc3ccccc23)sc1C(=O)N1CCC(CO)CC1 ?
Response: 0.5

Query: I am curious: what efflux ratio value has been reported for Cn1nc(-c2cccc3ccccc23)cc1C(=O)N1CCC(CO)CC1 ?
Response: 0.5

Query: I am curious: what efflux ratio value has been reported for Cc1[nH]c(-c2cccc3ccccc23)cc1C(=O)N1CCC(CO)CC1 ?
Response: 1.3
